- System: Human immunodeficiency virus 1
- assay-info: Selectivity index expressed as the ratio of CC50/EC50 of MT-4 cell lines
readout-name: Selectivity index

Some solved cases for reference:
| smiles-input | readout-name | endpoint-value |
| --- | --- | --- |
| COc1ccc(C(Nc2ncnc3c2ncn3[C@@H]2O[C@H](CO[Si](C)(C)C(C)(C)C)[C@]3(OS(=O)(=O)C=C3N)[C@H]2O[Si](C)(C)C(C)(C)C)(c2ccccc2)c2ccccc2)cc1 | Selectivity index | <1.9 |
| CCn1cnc2ncn([C@@H]3O[C@H](CO[Si](C)(C)C(C)(C)C)[C@@]4(OS(=O)(=O)C=C4N)[C@H]3O[Si](C)(C)C(C)(C)C)c2c1=O | Selectivity index | >248 |
| Cn1cnc2ncn([C@@H]3O[C@H](CO[Si](C)(C)C(C)(C)C)[C@@]4(OS(=O)(=O)C=C4N)[C@H]3O[Si](C)(C)C(C)(C)C)c2c1=O | Selectivity index | 776 |
| Cn1cnc2c(ncn2[C@@H]2O[C@H](CO[Si](C)(C)C(C)(C)C)[C@@]3(OS(=O)(=O)C=C3N)[C@H]2O[Si](C)(C)C(C)(C)C)c1=O | Selectivity index | >292 |
| CC(C)(C)[Si](C)(C)OC[C@H]1O[C@@H](n2c(=O)[nH]c(=O)c3[nH]cnc32)[C@H](O[Si](C)(C)C(C)(C)C)[C@]12OS(=O)(=O)C=C2N | Selectivity index | 5.2 |

Let us move to another entry and its Selectivity index.
Q: Consider the compound shown here: CC(C)(C)[Si](C)(C)OC[C@H]1O[C@@H](n2cnc3cncnc32)[C@H](O[Si](C)(C)C(C)(C)C)[C@]12OS(=O)(=O)C=C2N What is its recorded Selectivity index?
Result: 73

###

- Test system: Human immunodeficiency virus 1
- assay-info: Selectivity index expressed as the ratio of CC50/EC50 of MT-4 cell lines
Response field label: string, one of Fulfilled (Selectivity index strictly below 40) or Not fulfilled.

Q: Decide: Selectivity index of CNc1ncnc2c1ncn2[C@@H]1O[C@H](CO[Si](C)(C)C(C)(C)C)[C@@]2(OS(=O)(=O)C=C2N)[C@H]1O[Si](C)(C)C(C)(C)C strictly below 40?
Result: Not fulfilled

Q: Also CC(C)(C)[Si](C)(C)OC[C@H]1O[C@@H](n2cnc3c(N)ncnc32)[C@H](O[Si](C)(C)C(C)(C)C)[C@@]12OS(=O)(=O)C=C2N ?
Result: Fulfilled

Q: Also CC(C)(C)[Si](C)(C)OC[C@H]1O[C@@H](n2cnc3ncn([C@@H]4O[C@H](CO[Si](C)(C)C(C)(C)C)[C@@]5(OS(=O)(=O)C=C5N)[C@H]4O[Si](C)(C)C(C)(C)C)c3c2=O)[C@H](O[Si](C)(C)C(C)(C)C)[C@]12OS(=O)(=O)C=C2N ?
Result: Fulfilled

Q: Next compound: CC(C)(C)[Si](C)(C)OC[C@H]1O[C@@H](n2cnc3ncnc(O)c32)[C@H](O[Si](C)(C)C(C)(C)C)[C@]12OS(=O)(=O)C=C2N
Result: Not fulfilled

Q: Next entry: COc1ccc(C(Nc2ncnc3c2ncn3[C@@H]2O[C@H](CO[Si](C)(C)C(C)(C)C)[C@@]3(OS(=O)(=O)C=C3N)[C@H]2O[Si](C)(C)C(C)(C)C)(c2ccccc2)c2ccccc2)cc1
Result: Fulfilled

###

- Tested on: Human immunodeficiency virus 1
- assay-info: Selectivity index expressed as the ratio of CC50/EC50 of MT-4 cell lines
Decide using Selectivity index: a value greater than or equal to 50 is Y, a smaller one is N.

Q: Determine whether this molecule has Selectivity index no lower than 50: CN(C)c1ncnc2c1ncn2[C@@H]1O[C@H](CO[Si](C)(C)C(C)(C)C)[C@@]2(OS(=O)(=O)C=C2N)[C@H]1O[Si](C)(C)C(C)(C)C
Result: N

Q: Can you handle CC(C)(C)[Si](C)(C)OC[C@H]1O[C@@H](n2cnc3ccccc32)[C@H](O[Si](C)(C)C(C)(C)C)[C@]12OS(=O)(=O)C=C2N next?
Result: N

Q: Also need CC(C)(C)[Si](C)(C)OC[C@H]1O[C@@H](n2cnc3c(N)ncnc32)[C@H](O[Si](C)(C)C(C)(C)C)[C@]12OS(=O)(=O)C=C2N , thanks.
Result: N

Q: Next record, please: CC(C)(C)[Si](C)(C)OC[C@H]1O[C@@H](n2cnc3c(O)ncnc32)[C@H](O[Si](C)(C)C(C)(C)C)[C@]12OS(=O)(=O)C=C2N
Result: Y

Q: Entry COc1ncnc2c1ncn2[C@@H]1O[C@H](CO[Si](C)(C)C(C)(C)C)[C@@]2(OS(=O)(=O)C=C2N)[C@H]1O[Si](C)(C)C(C)(C)C please
Result: Y

Q: Another molecule: CC(C)(C)[Si](C)(C)OC[C@H]1O[C@@H](n2cnc3[nH]c(=O)[nH]c(=O)c32)[C@H](O[Si](C)(C)C(C)(C)C)[C@]12OS(=O)(=O)C=C2N
Result: N
